# Tested on: S. epidermidis strain ATCC 35984
# Procedure details: Biofilm prevention screen (96-well microplate, crystal violet)
# Type: cell-based
# Run parameters: Staphylococcus epidermidis, ATCC35984, 32 μM, positive = prevention, negative = enhancement of biofilm formation, quadruplicate, read-out: average percentage reduction of biofilm formed relative to DMSO controls
In this section we review reported inhibition at 32 µM values for a set of compounds.
The reply should contain only the number, in %.

Reference set, count: 3
CCCCCCCCCCNC(=O)[C@H]1CCCN1C(=O)OC(C)(C)C [Compound 158] : -10
CCCCNC(=O)[C@H]1CCCN1 [Compound 162] : -4
CCCCCCCCCCNC(=O)[C@@H]1CCN1C(=O)OC(C)(C)C [Compound 285] : 2

API: the following record is the query input.
Q) For O=C(NCCCCCCCCCCCCNC(=O)[C@H]1CCCN1)[C@H]1CCCN1 [Compound 226, D-proline 1,12-diaminododecane bisamide] , write its inhibition at 32 µM.
A) 24
